- System: Escherichia coli TOP10;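 note: peptides expressed intracellularly from a pBAD plasmid library in pooled LB shake-flask culture, induced with 0.3% L-arabinose, DNA abundance read by NGS, three biological replicates, DESeq2 with apeglm shrinkage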
- protocol_text: shrunken log2 fold change of peptide-encoding DNA abundance (4.5 h post-induction vs induction); higher = less antimicrobial activity (less host growth inhibition)
- condition_parameters: time post-induction: 4.5 h; library: site-saturation at positions 5, 18, 19, 20
measured_property: shrunken log2 fold change

seq=RRIRIRPPRLPRPRPRPREPPRP recorded_result=0.183
seq=RRIRNRPPRLPRPRPRPWISPRP recorded_result=-0.0184
seq=RRIRWRPPRLPRPRPRPSYVPRP recorded_result=-0.651
seq=RRIRLRPPRLPRPRPRPTGNPRP recorded_result=-0.044
seq=RRIRTRPPRLPRPRPRPYEDPRP recorded_result=-0.0155
seq=RRIRERPPRLPRPRPRPSCMPRP recorded_result=-0.416
seq=RRIRARPPRLPRPRPRPEPPPRP recorded_result=1.27
seq=RRIRRRPPRLPRPRPRPATDPRP recorded_result=0.204
seq=RRIRIRPPRLPRPRPRPFIDPRP recorded_result=-0.205
seq=RRIRMRPPRLPRPRPRPKNMPRP recorded_result=-0.0276
seq=RRIRNRPPRLPRPRPRPKKQPRP recorded_result=-0.0788
seq=RRIRMRPPRLPRPRPRPFSMPRP recorded_result=-0.112
seq=RRIRSRPPRLPRPRPRPDLCPRP recorded_result=-0.159
seq=RRIRRRPPRLPRPRPRPTCIPRP recorded_result=-0.123
seq=RRIRYRPPRLPRPRPRPHKHPRP recorded_result=-0.91
seq=RRIRGRPPRLPRPRPRPWGKPRP recorded_result=-0.0896
seq=RRIRNRPPRLPRPRPRPWLHPRP recorded_result=-0.0277
seq=RRIRSRPPRLPRPRPRPPNLPRP recorded_result=-0.148
seq=RRIRARPPRLPRPRPRPTLQPRP recorded_result=0.694
seq=RRIRIRPPRLPRPRPRPAKKPRP recorded_result=0.0493
seq=RRIRTRPPRLPRPRPRPHTWPRP recorded_result=-0.281
seq=RRIRHRPPRLPRPRPRPENFPRP recorded_result=-0.0249
